Test system: SK-OV-3
Protocol description: Inhibition of cell growth in human ovarian carcinoma cell line(SKOV-3) using the 96 hour continuous exposure sulforhodamine B (SRB) growth delay assay
Format: functional, cell-based
Measurement parameters: sk-ov-3
Quantity kind: pIC50
Answers are plain numbers, as −log10 of the molar value.

Prompt line: # get_value(readout='pIC50', item= CISPLATIN )
Response line: 4.98

###

Test system: A2780
Protocol description: Inhibition of cell growth in human ovarian carcinoma cell line (A2780) using the 96 hour continuous exposure sulforhodamine B (SRB) growth delay assay
Format: functional, cell-based
Measurement parameters: a2780
Quantity kind: IC50 (nM)
Answers are plain numbers, in nM.

Prompt line: # get_value(readout='IC50', item= CISPLATIN )
Response line: 265
